biological target: AMPA receptor (human GluR1 flip/stargazin expressed in CHO-K1 cells) (Homo sapiens, UniProt P42261); construct: expressed in transfected cells; host or cells: CHO-K1; experiment: AMPA receptor function enhancing activity using calcium influx as index; type: cell-based; conditions: test compound 30 μM with glutamic acid final 3 mM, change in fluorescence in 3 min, 100% = 3 mM glutamic acid + 300 μM cyclothiazide, 0% = 3 mM glutamic acid only
Sequence (P42261 19-906 isoform P42261-2 limits assumed): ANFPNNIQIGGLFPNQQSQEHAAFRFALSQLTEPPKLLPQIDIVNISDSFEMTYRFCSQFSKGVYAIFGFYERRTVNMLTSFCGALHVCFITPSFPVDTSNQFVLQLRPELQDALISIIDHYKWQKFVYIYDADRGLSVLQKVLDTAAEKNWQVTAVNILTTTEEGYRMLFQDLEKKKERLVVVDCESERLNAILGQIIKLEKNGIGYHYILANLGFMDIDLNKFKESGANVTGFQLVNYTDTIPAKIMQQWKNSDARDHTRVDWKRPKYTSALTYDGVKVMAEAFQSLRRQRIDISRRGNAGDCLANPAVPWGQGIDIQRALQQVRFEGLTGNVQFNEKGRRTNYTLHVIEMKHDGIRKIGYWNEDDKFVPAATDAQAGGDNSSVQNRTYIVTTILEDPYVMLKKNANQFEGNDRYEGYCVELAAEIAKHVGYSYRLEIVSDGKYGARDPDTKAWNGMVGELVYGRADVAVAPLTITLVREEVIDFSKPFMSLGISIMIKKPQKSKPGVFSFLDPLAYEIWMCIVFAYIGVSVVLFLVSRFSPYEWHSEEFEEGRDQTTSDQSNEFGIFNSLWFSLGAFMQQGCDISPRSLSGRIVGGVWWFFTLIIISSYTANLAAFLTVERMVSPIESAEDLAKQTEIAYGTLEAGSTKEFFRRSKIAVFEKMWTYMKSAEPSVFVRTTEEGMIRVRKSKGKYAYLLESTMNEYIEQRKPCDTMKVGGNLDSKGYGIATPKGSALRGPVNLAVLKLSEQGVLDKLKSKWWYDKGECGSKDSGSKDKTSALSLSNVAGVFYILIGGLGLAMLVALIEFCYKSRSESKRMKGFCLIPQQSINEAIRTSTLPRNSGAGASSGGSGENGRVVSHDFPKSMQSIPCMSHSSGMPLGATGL
Sequence (Q9Y698 whole entry partner): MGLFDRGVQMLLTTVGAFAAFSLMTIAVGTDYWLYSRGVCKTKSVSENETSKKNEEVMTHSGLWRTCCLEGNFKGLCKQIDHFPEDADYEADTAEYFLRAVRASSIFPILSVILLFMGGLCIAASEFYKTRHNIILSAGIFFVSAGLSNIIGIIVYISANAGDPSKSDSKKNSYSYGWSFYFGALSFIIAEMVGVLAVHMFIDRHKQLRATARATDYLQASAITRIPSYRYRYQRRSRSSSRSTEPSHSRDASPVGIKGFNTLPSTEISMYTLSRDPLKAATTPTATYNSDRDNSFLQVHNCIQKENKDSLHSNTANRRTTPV
Test Readout: activity (%)

Compound	Reported Result
O=S1(=O)CCN2C=C(Cl)C=C(c3ccc(OC4CCCCC4)cc3)C2=N1	75
Cc1ccc(C(F)(F)c2ccc(C3CCCN4CCS(=O)(=O)N=C34)cc2)cc1 (stereo not drawn) [Example 137]	61
COc1ccc2ccc(OC3CCCN4CCS(=O)(=O)N=C34)cc2c1 (stereo not drawn) [Example 462]	69
O=S1(=O)CCN2C=C(Cl)C=C(c3ccc(Oc4ncccc4C(F)(F)F)cc3)C2=N1	72
COc1ccc2ccc(OC3CCCN4CCS(=O)(=O)N=C34)cc2c1 (stereo not drawn) [Example 60]	63
O=S1(=O)CCN2CCCC(c3ccc(Oc4ccccc4C(F)(F)F)cc3)C2=N1 (stereo not drawn)	67
CCCCn1ccc2cc(C3CCCN4CCS(=O)(=O)N=C34)ccc21 (stereo not drawn)	82
Cc1ccc(Cc2ccc(C3CCCN4CCS(=O)(=O)N=C34)cc2)cc1 (stereo not drawn)	63
O=S1(=O)CCN2C=CC=C(c3ccc(OCC4CCCO4)cc3)C2=N1 (stereo not drawn)	81

Ref: patent US8916551B2
